system: HT-1080.hFAP and HT-1080.wt xenografts; assay: Quantitative biodistribution in HT-1080.hFAP and HT-1080.wt xenografted mice; assay type: in vivo; conditions: 1 h p.i., HT-1080.hFAP and HT-1080.wt xenografts
Parameter Biodistribution HT1080.hFAP (FAP-positive tumor): see the listing below.
measured-attribute: Biodistribution HT1080.hFAP (FAP-positive tumor) (% IA/g)

compound	measured-number
N#C[C@@H]1CC(F)(F)CN1C(=O)CNC(=O)c1ccnc2ccc(NC(=O)CCC(=O)N3CCN(C(=O)CC[C@H](C(=O)O)N4CCN5CCN(CC4)CC(=O)[O][61Cu][O]C(=O)C5)CC3)cc12 [[^61Cu]Cu-NODAGA-F3]	7.9
CN(C(=O)CCC(=O)NCCNC(=O)CC[C@H](C(=O)O)N1CCN2CCN(CC1)CC(=O)[O][61Cu][O]C(=O)C2)c1ccc2nccc(C(=O)NCC(=O)N3CC(F)(F)C[C@H]3C#N)c2c1 [[^61Cu]Cu-NODAGA-F2]	3.5
CN(CCCN1CCN(C(=O)CCC(C(=O)O)N2CCN3CCN(CC2)CC(=O)[O][61Cu][O]C(=O)C3)CC1)c1ccc2nccc(C(=O)NCC(=O)N3CC(F)(F)C[C@H]3C#N)c2c1 (some centres unmarked) [[^61Cu]Cu-NODAGA-FAPI-46]	8.4
CN(C(=O)CCC(=O)N1CCN(C(=O)CC[C@H](C(=O)O)N2CCN3CCN(CC2)CC(=O)[O][61Cu][O]C(=O)C3)CC1)c1ccc2nccc(C(=O)NCC(=O)N3CC(F)(F)C[C@H]3C#N)c2c1 [[^61Cu]Cu-NODAGA-F4]	7.4
N#C[C@@H]1CC(F)(F)CN1C(=O)CNC(=O)c1ccnc2ccc(NC(=O)CCC(=O)NCCNC(=O)CC[C@H](C(=O)O)N3CCN4CCN(CC3)CC(=O)[O][61Cu][O]C(=O)C4)cc12 [[^61Cu]Cu-NODAGA-F1]	12.6

---

system: HT-1080.hFAP and HT-1080.wt xenografts; test: Quantitative biodistribution in HT-1080.hFAP and HT-1080.wt xenografted mice; type: in vivo; details: 1 h p.i., HT-1080.hFAP and HT-1080.wt xenografts
Binary call on Biodistribution Kidney with cut-off 2 % IA/g: strictly below means TRUE, and equality or higher means FALSE.

compound	assigned-class
CN(C(=O)CCC(=O)N1CCN(C(=O)CC[C@H](C(=O)O)N2CCN3CCN(CC2)CC(=O)[O][61Cu][O]C(=O)C3)CC1)c1ccc2nccc(C(=O)NCC(=O)N3CC(F)(F)C[C@H]3C#N)c2c1 [[^61Cu]Cu-NODAGA-F4]	TRUE
N#C[C@@H]1CC(F)(F)CN1C(=O)CNC(=O)c1ccnc2ccc(NC(=O)CCC(=O)N3CCN(C(=O)CC[C@H](C(=O)O)N4CCN5CCN(CC4)CC(=O)[O][61Cu][O]C(=O)C5)CC3)cc12 [[^61Cu]Cu-NODAGA-F3]	TRUE
CN(CCCN1CCN(C(=O)CCC(C(=O)O)N2CCN3CCN(CC2)CC(=O)[O][61Cu][O]C(=O)C3)CC1)c1ccc2nccc(C(=O)NCC(=O)N3CC(F)(F)C[C@H]3C#N)c2c1 (some centres unmarked) [[^61Cu]Cu-NODAGA-FAPI-46]	TRUE
N#C[C@@H]1CC(F)(F)CN1C(=O)CNC(=O)c1ccnc2ccc(NC(=O)CCC(=O)NCCNC(=O)CC[C@H](C(=O)O)N3CCN4CCN(CC3)CC(=O)[O][61Cu][O]C(=O)C4)cc12 [[^61Cu]Cu-NODAGA-F1]	FALSE
CN(C(=O)CCC(=O)NCCNC(=O)CC[C@H](C(=O)O)N1CCN2CCN(CC1)CC(=O)[O][61Cu][O]C(=O)C2)c1ccc2nccc(C(=O)NCC(=O)N3CC(F)(F)C[C@H]3C#N)c2c1 [[^61Cu]Cu-NODAGA-F2]	TRUE
